# System: Aspergillus fumigatus
# Experiment Description: Antifungal activity against Aspergillus fumigatus by broth microdilution technique
# Format: functional, organism-based
Readout Label: IC50

Recorded results for 3 molecules are shown here.
CCOC(=O)CSC1=C(NC(C)C)C(=O)c2ccccc2C1=O    44.9 µg/mL
CCOC(=O)C(C)SC1=C(NC(C)(C)C)C(=O)c2ccccc2C1=O (centres undefined)    21.8 µg/mL
CCOC(=O)CSC1=C(NCC(C)C)C(=O)c2ccccc2C1=O    > 50 µg/mL

The reported IC50 value, Aspergillus fumigatus, for CCOC(=O)C(C)SC1=C(Cl)C(=O)c2ccccc2C1=O (centres undefined) reads > 50 µg/mL

The reported IC50 value, Aspergillus fumigatus, for CCOC(=O)C(C)SC1=C(NCCc2ccc(OC)c(OC)c2)C(=O)c2ccccc2C1=O (centres undefined) reads > 50 µg/mL
